The measurements presented in this section are drawn from ChEMBL document CHEMBL3870302.

ASSAY_INFO: Selectivity index, ratio of CC50 for human HuH5.2 cells to EC50 for hepatitis C virus genotype 1b infected in human HuH5.2 cells
Format: toxicity, cell-based
CONDITION_CONTEXT: HuH5.2 cells, read-out: Ratio CC50/EC50
// map selectivity ratio onto a label; ranges class 0 (below 5), class 1 (5 to below 30), class 2 (30 or more)

COMPOUND | CATEGORY
O=C(NNc1ncnc2sc3c(c12)CCCC3)c1cc(O)ccc1O | class 2
O=C(NNc1ncnc2sc3c(c12)CCCC3)c1cc2ccccc2[nH]1 | class 0
O=C(NNc1ncnc2sccc12)c1ccccn1 | class 2
Cc1cc(O)cc(O)c1/C=N/NC(=O)COc1ccc2ccccc2c1 | class 1
O=C(NNc1ncnc2sccc12)c1cc(O)ccc1O | class 2
O=C(NNc1ncnc2sccc12)c1cnccn1 | class 2
Cc1c(Cl)sc2ncnc(NNC(=O)c3ccccc3O)c12 | class 2
C/C(=N\Nc1ncnc2sc3c(c12)CCCC3)c1ccco1 | class 0
O=C(NNc1ncnc2sc3c(c12)CCC3)c1nc2ccccc2[nH]1 | class 1
c1ccc2[nH]c(Nc3ncnc4sc5c(c34)CCCC5)nc2c1 | class 0
C/C(=N\Nc1ncnc2sc3ccccc3c12)c1nc2ccccc2[nH]1 | class 1
C/C(=N\Nc1ncnc2sc3ccccc3c12)c1cc(O)ccc1O | class 2
CCOC(=O)c1cnc2c(ccc3ccccc32)c1Nc1ccc(C(=O)OC)cc1 | class 1
C/C(=N/Nc1ncnc2sc3c(c12)CCC3)c1ccccn1 | class 1
CCc1ccc(S(=O)(=O)Nc2cc3c(C(=O)OC)c(C)oc3c3ccccc23)cc1 | class 0
O=C(NNc1ncnc2sc3ccccc3c12)c1ccccc1O | class 2
C/C(=N\Nc1ncnc2sc3c(c12)CCCC3)c1ccccc1 | class 0
C/C(=N\Nc1ncnc2sc3c(c12)CCCC3)c1cc(O)ccc1O (stereo in doubt; form 2) | class 2
C/C(=N/Nc1ncnc2sc3c(c12)CCC3)c1cnccn1 | class 0
O=C(NNc1ncnc2sc3c(c12)CCCC3)c1cnccn1 | class 1
Cc1sc2ncnc(NNC(=O)c3cnccn3)c2c1C | class 2
NNc1ncnc2sc3c(c12)CCCC3 | class 1

###

Test system: Hepatitis C virus
ASSAY_INFO: Antiviral activity against Hepatitis C virus genotype 1b infected in human HuH5.2 cells after 72 hrs by luciferase reporter gene assay
Format: functional, cell-based, Hepacivirus hominis
CONDITION_CONTEXT: Hepatitis C virus, genotype 1b, Huh-5-2, 72 h

SMILES_NOTATION | TEST_SYSTEM | CENSORING_OPERATOR | EC90 (µM)
C/C(=N\Nc1ncnc2sc3ccccc3c12)c1cc(O)ccc1O | Hepatitis C virus | = | 0.897
C/C(=N/Nc1ncnc2sccc12)c1ccccc1O | Hepatitis C virus | > | 10.6
C/C(=N\Nc1ncnc2sc3c(c12)CCCC3)c1cccc(O)c1 | Hepatitis C virus | > | 443
O=C(NNc1ncnc2sc3ccccc3c12)c1ccccc1O | Hepatitis C virus | = | 1.6
CCOc1ccc2sc(NS(=O)(=O)c3ccc(OC)c(OC)c3)nc2c1 | Hepatitis C virus | > | 127
C/C(=N\Nc1ncnc2sc3c(c12)CCC3)c1ccccc1O | Hepatitis C virus | = | 4.07
C/C(=N\Nc1ncnc2sc3c(c12)CCCC3)c1ccccc1 | Hepatitis C virus | > | 310
C/C(=N\Nc1ncnc2sc3c(c12)CCCC3)c1ccc[nH]1 | Hepatitis C virus | = | 12.8
O=C(NNc1ncnc2sc3c(c12)CCC3)c1nc2ccccc2[nH]1 | Hepatitis C virus | = | 1.11
C/C(=N\Nc1ncnc2sc3c(c12)CCCC3)c1cccnc1 | Hepatitis C virus | > | 103
CCc1sc2ncnc(N/N=C(/C)c3cc(O)ccc3O)c2c1C | Hepatitis C virus | = | 1.62

###

The following compounds are listed with their measured log10(CC50 at 72 h) values.
ASSAY_INFO: Cytotoxicity against human HuH5.2 cells assessed as reduction in metabolic activity after 72 hrs by MTS assay
Assay type: toxicity, cell-based, Huh-5-2
CONDITION_CONTEXT: HuH5.2 cells
MEASUREMENT_KIND: log10(CC50 at 72 h) (log10 of the value in µM)

COMPOUND | NUMERIC_VALUE
O=C(NNc1ncnc2sc3ccccc3c12)c1ccccc1O | 2.03
O=C(NNc1ncnc2sc3c(c12)CCCC3)c1cnccn1 | 1.03
c1ccc2[nH]c(Nc3ncnc4sc5c(c34)CCCC5)nc2c1 | 2.36
O=C(NNc1ncnc2sc3c(c12)CCCC3)c1cccs1 | 1.56
C/C(=N\Nc1ncnc2sc3c(c12)CCCC3)c1ccccc1 | 1.73
C/C(=N/Nc1ncnc2sccc12)c1ccccc1O | 1.91
C/C(=N\Nc1ncnc2sc3ccccc3c12)c1cc(O)ccc1O | 1.32
C/C(=N\Nc1ncnc2sc3c(c12)CCCC3)c1cnccn1 | 1.76
C/C(=N\Nc1ncnc2sc3c(c12)CCCC3)c1nc2ccccc2[nH]1 | 1.57
CC(=O)Nc1ccc(/C=C2\C=C(C(O)c3ccc(NC(C)=O)cc3)c3ccccc32)cc1 (stereo unspecified) | 1.69
C/C(=N\Nc1ncnc2sc3c(c12)CCCC3)c1ccco1 | 1.77
C/C(=N/Nc1ncnc2sccc12)c1cnccn1 | 0.95
O=C(NNc1ncnc2sc3c(c12)CCCC3)c1nc2ccccc2[nH]1 | 0.50
Oc1ccc(O)c(/C=N/Nc2ncnc3sc4c(c23)CCCC4)c1 | 1.57
NNc1ncnc2sc3c(c12)CCCC3 | 2.39
C/C(=N/Nc1ncnc2sccc12)c1cc(O)ccc1O | 2.35
Cc1cc(O)cc(O)c1/C=N/NC(=O)COc1ccc2ccccc2c1 | 1.72
O=C(NNc1ncnc2sc3c(c12)CCC3)c1ccccn1 | 0.82
C/C(=N\Nc1ncnc2sc3c(c12)CCCC3)c1cccs1 | 1.66
O=C(NNc1ncnc2sc3c(c12)CCC3)c1cnccn1 | 0.47
COC(=O)c1ccc(N2C(=O)CC(S/C(=N\c3ccccc3)NCc3ccc4c(c3)OCO4)C2=O)cc1 (stereo unspecified) | 1.80
CCOc1cccc(C(=O)Nc2cc(C(=O)OC)ccc2N2CCN(CC)CC2)c1 | 1.79
O=C(NNc1ncnc2sc3c(c12)CCCC3)c1cc2ccccc2[nH]1 | 1.87
C/C(=N\Nc1ncnc2sc3c(c12)CCCC3)c1ccc2ccccc2n1 | 0.86
COc1ccc(-c2c3c(nc4sc5c(O)nc(C)nc5c24)CCC3)cc1 | 2.11
c1ccc2c(Nc3ncnc4sc5c(c34)CCCC5)cccc2c1 | 2.45
C/C(=N\Nc1ncnc2sc3ccccc3c12)c1ccccc1O | 1.06
Cc1nc(NNC(=O)c2ccccc2O)c2c3c(sc2n1)CCCC3 | 1.40
O=C(NNc1ncnc2sc3c(c12)CCCC3)c1cc(O)ccc1O | 2.00
C/C(=N\Nc1ncnc2sc3c(c12)CCC3)c1ccccc1O | 2.15
O=C(NNc1ncnc2sc3c(c12)CCCC3)c1ccc[nH]1 | 2.20

###

The following compounds are listed with their measured pEC50 values.
Test system: Hepatitis C virus
ASSAY_INFO: Antiviral activity against Hepatitis C virus genotype 1b infected in human HuH5.2 cells after 72 hrs by luciferase reporter gene assay
Assay type: functional, cell-based, Hepacivirus hominis
CONDITION_CONTEXT: Hepatitis C virus, genotype 1b, Huh-5-2, 72 h
pEC50: −log10 of the molar value.

SMILES_NOTATION | TEST_SYSTEM | CENSORING_OPERATOR | pEC50
COc1ccc(/C(C)=N/NC(=O)c2cc(O)cc(O)c2)c(OC)c1 | Hepatitis C virus | < | 3.82
C/C(=N\Nc1nc(C)nc2sc3c(c12)CCCC3)c1cnccn1 | Hepatitis C virus | = | 7.16
O=C(NNc1ncnc2sc3c(c12)CCCC3)c1ccco1 | Hepatitis C virus | = | 3.70
C/C(=N\Nc1ncnc2sc3c(c12)CCCC3)c1ccc(O)cc1 | Hepatitis C virus | < | 3.53
Cc1sc2ncnc(NNC(=O)c3cnccn3)c2c1C | Hepatitis C virus | = | 7.41
O=C(NNc1ncnc2sccc12)c1cc(O)ccc1O | Hepatitis C virus | = | 5.56
Oc1ccc(O)c(/C=N/Nc2ncnc3sc4c(c23)CCCC4)c1 | Hepatitis C virus | = | 5.93
C/C(=N\Nc1ncnc2sc3ccccc3c12)c1ccccc1O | Hepatitis C virus | = | 7.06
C/C(=N\Nc1ncnc2sc3c(c12)CCCC3)c1ccccc1 | Hepatitis C virus | = | 4.47
O=C(NNc1ncnc2sc3c(c12)CCCC3)c1nc2ccccc2[nH]1 | Hepatitis C virus | = | 6.77
C/C(=N/Nc1ncnc2sc3c(c12)CCC3)c1ccccn1 | Hepatitis C virus | = | 5.93
O=S(=O)(NNc1ncnc2sc3c(c12)CCCC3)c1ccccn1 | Hepatitis C virus | = | 4.37

###

Tested on: Hepatitis C virus
ASSAY_INFO: Antiviral activity against Hepatitis C virus genotype 1b infected in human HuH5.2 cells after 72 hrs by luciferase reporter gene assay
Assay type: functional, cell-based, Hepacivirus hominis
CONDITION_CONTEXT: Hepatitis C virus, genotype 1b, Huh-5-2, 72 h

SMILES_NOTATION | TEST_SYSTEM | U | CENSORING_OPERATOR | EC90
C/C(=N\Nc1ncnc2sc3c(c12)CCC3)c1cc(O)ccc1O | Hepatitis C virus | µM | = | 17.6
c1cnc2c(Nc3ncnc4sc5c(c34)CCCC5)cccc2c1 | Hepatitis C virus | µM | > | 100
C/C(=N\Nc1ncnc2sc3c(c12)CCCC3)c1cc(Cl)ccc1Cl | Hepatitis C virus | µM | = | 55.1
O=C(NNc1ncnc2sc3c(c12)CCCC3)c1nc2ccccc2[nH]1 | Hepatitis C virus | µM | = | 0.679
O=C(NNc1ncnc2sc3c(c12)CCC3)c1ccccn1 | Hepatitis C virus | µM | = | 1.94
C/C(=N/Nc1ncnc2sc3c(c12)CCC3)c1ccccn1 | Hepatitis C virus | µM | = | 1.44
